The measured values listed here are drawn from PubChem BioAssay AID1445.

# SYSTEM NAME: Aminopeptidase N (Plasmodium falciparum (isolate 3D7)) (UniProt O96935)
# Sequence (O96935 whole entry, looked up): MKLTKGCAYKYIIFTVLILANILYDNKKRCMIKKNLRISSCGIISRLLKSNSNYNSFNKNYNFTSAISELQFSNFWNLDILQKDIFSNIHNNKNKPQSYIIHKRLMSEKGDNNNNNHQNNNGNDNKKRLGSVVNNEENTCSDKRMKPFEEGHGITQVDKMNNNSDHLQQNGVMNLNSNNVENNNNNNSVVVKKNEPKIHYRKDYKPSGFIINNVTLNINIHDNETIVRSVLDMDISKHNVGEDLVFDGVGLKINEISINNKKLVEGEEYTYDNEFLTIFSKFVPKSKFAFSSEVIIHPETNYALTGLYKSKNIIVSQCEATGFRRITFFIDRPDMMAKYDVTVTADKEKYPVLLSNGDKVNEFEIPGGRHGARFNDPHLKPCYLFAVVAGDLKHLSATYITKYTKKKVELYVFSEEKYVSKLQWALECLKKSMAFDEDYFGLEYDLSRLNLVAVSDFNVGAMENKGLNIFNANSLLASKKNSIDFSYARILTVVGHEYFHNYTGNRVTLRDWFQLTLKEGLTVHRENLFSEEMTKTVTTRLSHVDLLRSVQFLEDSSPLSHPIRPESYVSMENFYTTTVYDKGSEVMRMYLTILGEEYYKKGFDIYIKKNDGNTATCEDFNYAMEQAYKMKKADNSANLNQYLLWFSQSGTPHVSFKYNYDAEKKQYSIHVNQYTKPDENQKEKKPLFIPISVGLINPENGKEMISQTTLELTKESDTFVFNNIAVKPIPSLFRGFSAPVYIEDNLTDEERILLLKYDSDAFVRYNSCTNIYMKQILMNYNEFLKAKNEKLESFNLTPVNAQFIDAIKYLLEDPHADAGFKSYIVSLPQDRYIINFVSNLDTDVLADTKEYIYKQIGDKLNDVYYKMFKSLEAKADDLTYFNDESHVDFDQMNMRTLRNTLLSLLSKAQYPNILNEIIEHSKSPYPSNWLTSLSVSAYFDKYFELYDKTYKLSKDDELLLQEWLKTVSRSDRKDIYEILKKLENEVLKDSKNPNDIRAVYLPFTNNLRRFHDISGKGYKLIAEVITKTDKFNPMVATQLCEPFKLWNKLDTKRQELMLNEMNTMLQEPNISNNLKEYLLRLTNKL
# ASSAY PROTOCOL: malaria alanyl aminopeptidase activity blockers – biochemical, fluorogenic H-Leu-NHMec substrate, 1536-well (AID 1445)
# CONDITION SUMMARY: recombinant M1AAP, H-Leu-NHMec fluorogenic kinetic assay; at 30 µM, hits give high values unless noted
Among all 220,000 compounds or so, about 910 (0.41%) were called active. The full list was thinned out, with actives kept by preference. Entries with a potency or affinity are not part of this list.
Classification field: enter TRUE for inhibition values not below 10%, FALSE for values below it.

Before answering, review these 2 worked examples.
hey, is inhibition for this one >= 10%? `N#Cc1c(NC(=O)CSc2nnc(-c3ccccc3)o2)sc2c1CCCC2`
TRUE

hey, is inhibition for this one >= 10%? O=C(NC1CCCC1)C(c1ccncc1)N(Cc1cccs1)C(=O)c1csnn1 (centres undefined)
TRUE

More entries:
hey, is inhibition for this one >= 10%? `COC(=O)CSc1nnc(-c2ccc(NS(=O)(=O)c3ccccc3)cc2)o1`
FALSE

hey, is inhibition for this one >= 10%? `CCC(=O)Nc1ccc(-c2nc3ccccc3c(=O)o2)cc1`
FALSE

hey, is inhibition for this one >= 10%? `Cc1ccc(C(=O)Nc2nc3nc(-c4ccccc4)cc(=O)n3[nH]2)cc1`
TRUE

hey, is inhibition for this one >= 10%? CC(C)CC1C(C#N)=C(N)Oc2n[nH]c(-c3cccs3)c21 (centres undefined)
FALSE

hey, is inhibition for this one >= 10%? `Cc1sc(NC(=O)CSc2nnc(-c3ccc(F)cc3)o2)c(C#N)c1C`
TRUE

hey, is inhibition for this one >= 10%? `O=S(=O)(c1ccc2ccccc2c1)N1CCN(C(=S)Nc2ccc(F)cc2)CC1`
FALSE

hey, is inhibition for this one >= 10%? `FC(F)(F)c1ccccc1CN1CCN(C2CCCCCC2)CC1`
FALSE

hey, is inhibition for this one >= 10%? Cc1ccc(C(C(=O)NC2CCCC2)N(Cc2cccs2)C(=O)c2csnn2)o1 (centres undefined)
FALSE

hey, is inhibition for this one >= 10%? CSCCC1C(C#N)=C(N)Oc2n[nH]c(-c3cccs3)c21 (centres undefined)
TRUE

hey, is inhibition for this one >= 10%? `COc1cc(NC(=O)CN(C)Cc2cccc(F)c2)c(C)cc1[N+](=O)[O-]`
TRUE

hey, is inhibition for this one >= 10%? `Cc1cc(-c2n[nH]c(=S)n2/N=C/C=C/c2ccccc2)n[nH]1`
TRUE

hey, is inhibition for this one >= 10%? CC(C)(C)NC(=O)C(c1ccncc1)N(Cc1cccs1)C(=O)c1csnn1 (centres undefined)
FALSE

hey, is inhibition for this one >= 10%? `Cc1ccc(S(=O)(=O)Oc2ccccc2/C=N/NC(=O)c2nn(C)cc2[N+](=O)[O-])cc1`
FALSE

hey, is inhibition for this one >= 10%? `O=C(CCCn1ncn2c(cc3occc32)c1=O)N1CCc2ccccc2C1`
FALSE
